Tested on: nitrilase (nitA) from Rhodococcus rhodochrous NCIMB 11216 expressed in E. coli JM 109
Assay: Conversion of nitriles by E. coli JM 109 (pDHE 17 and pDHE 18) cells; NH4 ions produced in supernatant, measured at 620 nm
Format: biochemical
Settings: Experiment 1; E. coli JM 109 (pDHE 17 and pDHE 18) cells, 2 g DBM/l, 30° C., 200 rpm, 1 h; measurement at 620 nm
endpoint: amount of NH4 ions produced in the supernatant (Table 1, Experiment 1)

{"compound": "N#CCc1ccccn1 [2-Pyridylacetonitrile]", "endpoint.result": 0.1222}
{"compound": "N#Cc1cccnc1 [3-Cyanopyridine]", "endpoint.result": 0.2393}
{"compound": "N#CCC#N [Malononitrile]", "endpoint.result": 0.1208}
{"compound": "CCC(C#N)c1ccccc1 (centres unmarked) [2-Phenylbutyronitrile]", "endpoint.result": 0.1376}
{"compound": "CC(C)(C)C#N [Pivalonitrile]", "endpoint.result": 0.1569}
{"compound": "N#CCc1ccc(Cl)cc1 [4-Chlorobenzyl cyanide]", "endpoint.result": 0.4830}
{"compound": "N#CCCCCCCC#N [Octanedinitrile]", "endpoint.result": 0.4548}
{"compound": "N#CCc1ccccc1 [Benzyl cyanide]", "endpoint.result": 0.2755}
